# reported pKd; entries follow
- System name: T1, SARS-CoV-2 S1 (Acro) (SARS-CoV-2, UniProt P0DTC2 16-685)
- T1 construct: also called Acro S1
- Measurement protocol: Carterra SPR
pKd: −log10 of the molar value.

>  <Binder>
7-31 (VHH, not shown: a dimerising Fc or GST) VHH: EVQLVESGGGLVQPGGSLRLSCAASGFTFSNYSMGWFRQAPGKEREFVAAIHWNGDSTAYADSVKGRFTISADNSKNTAYLQMNSLKPEDTAVYYCAAQTEDSAQYIWGQGTLVTVSS

>  <pKd>
6.64

$$$$
>  <Binder>
7-14 (VHH) VHH: EVQLVESGGGLVQPGGSLRLSCAASGSTFSINAMGWFRQAPGKEREFVAGISRGGTTNYADSVKGRFTISADNSKNTAYLQMNSLKPEDTAVYYCAADGVPEYSDYASGPVWGQGTLVTVSS

>  <pKd>
7.68

$$$$
>  <Binder>
8-10 (VHH, not shown: a dimerising Fc or GST) VHH: EVQLVESGGGLVQPGGSLRLSCAASGFIGNYHAMGWFRQAPGKEREFVAAVTWSGGTTNYADSVKGRFTISADNSKNTAYLQMNSLKPEDTAVYYCAREGYYYDSSGYPYYFDYWGQGTLVTVSS

>  <pKd>
3.18

$$$$
>  <Binder>
3-17 (VHH, not shown: a dimerising Fc or GST) VHH: EVQLVESGGGLVQPGGSLRLSCAASGRTSSSAVMGWFRQAPGKEREFVAAINRGGSTIYVDSVKGRFTISADNSKNTAYLQMNSLKPEDTAVYYCATGPYRSYFARSYLWGQGTLVTVSS

>  <pKd>
6.85

$$$$
>  <Binder>
7-22 (VHH, not shown: a dimerising Fc or GST) VHH: EVQLVESGGGLVQPGGSLRLSCAASGRTITRYTMGWFRQAPGKEREFVASITSGGSTAYADSVKGRFTISADNSKNTAYLQMNSLKPEDTAVYYCAKQDVGKPFDWGQGTLVTVSS

>  <pKd>
7.39

$$$$
>  <Binder>
7-40 (VHH) VHH: EVQLVESGGGLVQPGGSLRLSCAASGRTFRRYTMGWFRQAPGKEREFVASITKFGSTNYADSVKGRFTISADNSKNTAYLQMNSLKPEDTAVYYCAKEDVGKPFDWGQGTLVTVSS

>  <pKd>
4.07

$$$$
>  <Binder>
7-21 (VHH) VHH: EVQLVESGGGLVQPGGSLRLSCAASGRTISRYTMGWFRQAPGKEREFVASITSGGSTAYADSVKGRFTISADNSKNTAYLQMNSLKPEDTAVYYCAKEDVGKPFDWGQGTLVTVSS

>  <pKd>
7.57

$$$$
>  <Binder>
7-37 (VHH) VHH: EVQLVESGGGLVQPGGSLRLSCAASGSTLSINAMGWFRQAPGKEREFVAGITRSGSVTNYADSVKGRFTISADNSKNTAYLQMNSLKPEDTAVYYCAADGVPEYSDYASGPVWGQGTLVTVSS

>  <pKd>
7.67

$$$$
>  <Binder>
3-28 (VHH, not shown: a dimerising Fc or GST) VHH: EVQLVESGGGLVQPGGSLRLSCAASGFTFRRYDMGWFRQAPGKEREFVSAISGGLAYYADSVKGRFTISADNSKNTAYLQMNSLKPEDTAVYYCAVDLSGDAVYDWGQGTLVTVSS

>  <pKd>
7.28

$$$$
>  <Binder>
7-8 (VHH) VHH: EVQLVESGGGLVQPGGSLRLSCAASGSTFTINAMGWFRQAPGKEREFVSGISHNGGTTNYADSVKGRFTISADNSKNTAYLQMNSLKPEDTAVYYCAADGVPEYSDYASGPVWGQGTLVTVSS

>  <pKd>
7.28

$$$$
>  <Binder>
7-24 (VHH, not shown: a dimerising Fc or GST) VHH: EVQLVESGGGLVQPGGSLRLSCAASGFTFSRHAMNWFRQAPGKEREFVSTITGSGGSTNYADSVKGRFTISADNSKNTAYLQMNSLKPEDTAVYYCAREVGLYYYGSGSSSRRLLGRIDYYFDYWGQGTLVTVSS

>  <pKd>
2.37

$$$$
>  <Binder>
8-3 (VHH, not shown: a dimerising Fc or GST) VHH: EVQLVESGGGLVQPGGSLRLSCAASGTTLDYYAMGWFRQAPGKEREFVAAISWSGGSTAYADSVKGRFTISADNSKNTAYLQMNSLKPEDTAVYYCAREDYYDSSGYSWGQGTLVTVSS

>  <pKd>
4.74

$$$$
>  <Binder>
7-45 (VHH) VHH: EVQLVESGGGLVQPGGSLRLSCAASGRTLSRYTMGWFRQAPGKEREFVASITSGGSTNYADSVKGRFTISADNSKNTAYLQMNSLKPEDTAVYYCAKEDVGKPFDWGQGTLVTVSS

>  <pKd>
7.44

$$$$
>  <Binder>
8-06 (VHH, not shown: a dimerising Fc or GST, also called 8-6) VHH: EVQLVESGGGLVQPGGSLRLSCAASGFTFDYYAMGWFRQAPGKEREFVSAIDSEGRTSYADSVKGRFTISADNSKNTAYLQMNSLKPEDTAVYYCARWGPFDIWGQGTLVTVSS

>  <pKd>
7.42

$$$$
>  <Binder>
7-17 (VHH, not shown: a dimerising Fc or GST) VHH: EVQLVESGGGLVQPGGSLRLSCAASGFSLDYYGMGWFRQAPGKEREFVAAITSGGTPHYADSVKGRFTISADNSKNTAYLQMNSLKPEDTAVYYCASAYNPGIGYDWGQGTLVTVSS

>  <pKd>
7.22

$$$$
